Molecular target: T1, recombinant BACE1 (BACE1 extracellular domain, R&D Systems Cat#931-AS) (UniProt P56817 22-457)
T1 construct: extracellular domain; also called BACE1 extracellular domain protein
T1 sequence (P56817 22-457): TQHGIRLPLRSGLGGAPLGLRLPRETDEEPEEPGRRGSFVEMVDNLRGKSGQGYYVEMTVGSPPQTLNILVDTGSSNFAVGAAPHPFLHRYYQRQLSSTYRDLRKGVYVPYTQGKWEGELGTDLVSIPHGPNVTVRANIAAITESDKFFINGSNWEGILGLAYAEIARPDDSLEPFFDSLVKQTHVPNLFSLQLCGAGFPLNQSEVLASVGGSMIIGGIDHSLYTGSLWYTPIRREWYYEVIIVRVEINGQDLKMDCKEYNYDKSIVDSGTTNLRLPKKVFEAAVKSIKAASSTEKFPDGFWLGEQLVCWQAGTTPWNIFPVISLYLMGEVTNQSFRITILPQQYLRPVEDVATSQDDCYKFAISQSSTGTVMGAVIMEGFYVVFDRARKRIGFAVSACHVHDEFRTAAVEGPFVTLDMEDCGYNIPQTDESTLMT
Assay: SPR Biacore
OUTCOME_MEASURE: Kd
A complete answer gives the number followed by the unit.

Give its Kd value. Item: 2H8.11 (antibody, human IgG1, V domains shown, human IgG1/kappa; also called 2H8_HCvar5 + 2H8_LCvar2) VH: EVQLQQPGAEVVRPGTSVKLSCKASGYTFTNYWMHWVKQRPGQGLEWIGMIDPSDNYTKYNQKLKGKATLTVDTSSSTANMHVNSLTSEDSAVYFCARSGVAFPYWGQGTLVTVSA VL: DIVMTQSQKFMSTSVGDRVSVTCKASQNVGTNVAWYQQKPGQSPKALIYSASHRYSGVPDRFTGSGSGTDFTLTISNVQSEDLAEYFCQQYNSYMYTFGGGTKLEIK
17.7 nM

Requested field: Kd. Item: 2H8.06 (antibody, human IgG1, V domains shown, human IgG1/kappa; also called 2H8_HCvar6 + 2H8_LC) VH: EVQLQQSGAELVRPGTSVKLSCKASGYTFNNYWMHWVKQRPGQGLEWIGMIDPSDDDIKNNQKFKGKATLTVDTSSSTAYMQLISLTSEDSAVYYCARSGVALPYWGQGTLVTVSA VL: DIVMTQSQKFMSKSVGDTVSVTCKASQDVGRNVAWYQQKSGQSPKSLIYSASHRYSGVPDRFTGSGSGTDFTLTISNVQSEDLADYFCQQYNSYPYTFGGGTRLEIK
16 nM
